- TARGET OR SYSTEM: Peroxisome proliferator-activated receptor alpha (Homo sapiens, UniProt Q07869)
- MEASUREMENT NOTES: Agonist activity at human PPARalpha expressed in HEK293 cells assessed as receptor transactivation at by luciferase reporter gene assay
pEC50: −log10 of the molar value.
EXPERIMENTAL READOUT: pEC50

molecule="CCOc1ccc2nc(SC(C)C(=O)O)sc2c1 (racemic)" reported_result=5.01
molecule=CC(C)(Sc1nc2cc(C#N)ccc2s1)C(=O)O reported_result=4.33
molecule="CCCC(Sc1nc2cc(Cl)ccc2s1)C(=O)O (racemic)" reported_result=5.03
molecule="CC(Sc1nc2ccc(Br)cc2s1)C(=O)O (racemic)" reported_result=4.07
molecule=C[C@H](Sc1nc2cc(Cl)ccc2s1)C(=O)O reported_result=4.25

P = CC(C)(Sc1nc2ccc(Br)cc2s1)C(=O)O
Q = O=C(O)C(Sc1nc2cc(Cl)ccc2s1)c1ccccc1 (racemic)
-- ask Hey, which is lower on measured pEC50, P or Q ? Indicate which entry you chose by stating its label.
-- reply P

1 = COc1ccc2sc(SC(C)(C)C(=O)O)nc2c1
2 = CC(Sc1nc2cc(Br)ccc2s1)C(=O)O (racemic)
-- ask Of the two listed items, 1 and 2 , which carries the larger pEC50 figure? Indicate which entry you chose by stating its label.
-- reply 2
(2: 5.03, 1: 4.34)

I = CC(C)(Sc1nc2ccc(Cl)cc2s1)C(=O)O
II = CC(C)(Sc1ccc(Cl)s1)C(=O)O
-- ask Of the two listed items, I and II , which carries the larger pEC50 figure? Indicate which entry you chose by stating its label.
-- reply II

A = COc1ccc2sc(S[C@H](C)C(=O)O)nc2c1
B = CC(C)(Sc1nc2cc(Br)ccc2s1)C(=O)O
-- ask Hey, which is lower on measured pEC50, A or B ? Indicate which entry you chose by stating its label.
-- reply A

a = COc1ccc2sc(SC(C)C(=O)O)nc2c1 (racemic)
b = CCOc1ccc2nc(SC(C)(C)C(=O)O)sc2c1
-- ask Of the two listed items, a and b , which carries the larger pEC50 figure? Indicate which entry you chose by stating its label.
-- reply a

###

- TARGET OR SYSTEM: Peroxisome proliferator-activated receptor alpha (Homo sapiens)
- MEASUREMENT NOTES: Agonist activity at human PPARalpha expressed in HEK293 cells assessed as receptor transactivation at 150 uM by luciferase reporter gene assay relative to control
- Type: functional, cell-based
EXPERIMENTAL READOUT: fold change (FC)

Known fold change (FC) results, listed for orientation:
molecule=CC(C)(Sc1nc2ccc(Cl)cc2s1)C(=O)O target_or_system="Peroxisome proliferator-activated receptor alpha (Homo sapiens)" reported_result=1.7
molecule=CC(C)(Sc1nc2cc(Cl)ccc2s1)C(=O)O target_or_system="Peroxisome proliferator-activated receptor alpha (Homo sapiens)" reported_result=1.6
molecule=C[C@H](Sc1nc2cc(Cl)ccc2s1)C(=O)O target_or_system="Peroxisome proliferator-activated receptor alpha (Homo sapiens)" reported_result=2.6
molecule=COc1ccc2sc(SC(C)(C)C(=O)O)nc2c1 target_or_system="Peroxisome proliferator-activated receptor alpha (Homo sapiens)" reported_result=2
molecule="CC(Sc1nc2cc(Cl)ccc2s1)C(=O)O (racemic)" target_or_system="Peroxisome proliferator-activated receptor alpha (Homo sapiens)" reported_result=3.4

A = CC(C)(Sc1nc2ccc(C(F)(F)F)cc2s1)C(=O)O
B = COc1ccc2sc(S[C@@H](C)C(=O)O)nc2c1
-- ask Hey, which is lower on measured fold change (FC), A or B ? Indicate which entry you chose by stating its label.
-- reply A

###

- TARGET OR SYSTEM: Peroxisome proliferator-activated receptor alpha (Homo sapiens) (UniProt Q07869)
- Sequence (Q07869 whole entry): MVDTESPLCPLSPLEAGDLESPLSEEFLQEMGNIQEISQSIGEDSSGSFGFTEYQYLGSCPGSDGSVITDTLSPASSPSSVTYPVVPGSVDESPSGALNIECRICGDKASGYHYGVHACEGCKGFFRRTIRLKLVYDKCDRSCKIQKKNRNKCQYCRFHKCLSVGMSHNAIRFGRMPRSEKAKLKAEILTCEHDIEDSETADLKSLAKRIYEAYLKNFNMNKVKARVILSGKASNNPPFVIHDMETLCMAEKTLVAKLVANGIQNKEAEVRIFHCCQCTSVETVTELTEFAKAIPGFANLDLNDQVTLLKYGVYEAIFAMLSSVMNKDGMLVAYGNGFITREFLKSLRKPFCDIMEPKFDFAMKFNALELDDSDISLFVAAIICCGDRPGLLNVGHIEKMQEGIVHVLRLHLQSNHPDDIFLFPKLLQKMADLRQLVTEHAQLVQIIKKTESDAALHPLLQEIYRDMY
- MEASUREMENT NOTES: Agonist activity at human PPARalpha expressed in HEK293 cells assessed as receptor transactivation at 150 uM by luciferase reporter gene assay relative to control
- Format: functional, cell-based
EXPERIMENTAL READOUT: fold change (FC)

Known fold change (FC) results, listed for orientation:
compound=CCOc1ccc2nc(SC(C)(C)C(=O)O)sc2c1 target_or_system="Peroxisome proliferator-activated receptor alpha (Homo sapiens) (UniProt Q07869)" experimental_readout="fold change (FC)" reported_result=3.3
compound=CC(C)(Sc1ccc(Cl)s1)C(=O)O target_or_system="Peroxisome proliferator-activated receptor alpha (Homo sapiens) (UniProt Q07869)" experimental_readout="fold change (FC)" reported_result=2.8
compound=CC(C)(Oc1ccc(Cl)cc1)C(=O)O target_or_system="Peroxisome proliferator-activated receptor alpha (Homo sapiens) (UniProt Q07869)" experimental_readout="fold change (FC)" reported_result=1.6
compound="CC(Sc1nc2cc(Br)ccc2s1)C(=O)O (racemic)" target_or_system="Peroxisome proliferator-activated receptor alpha (Homo sapiens) (UniProt Q07869)" experimental_readout="fold change (FC)" reported_result=3.2

A = CC(Sc1nc2ccc(Br)cc2s1)C(=O)O (racemic)
B = COc1ccc2sc(SC(C)C(=O)O)nc2c1 (racemic)
-- ask Hey, which is lower on measured fold change (FC), A or B ? Indicate which entry you chose by stating its label.
-- reply A
(A: 1.9, B: 2.9)

a = CCCC(Sc1nc2cc(Cl)ccc2s1)C(=O)O (racemic)
b = C[C@@H](Sc1nc2cc(Cl)ccc2s1)C(=O)O
-- ask Of the two listed items, a and b , which carries the larger fold change (FC) figure? Indicate which entry you chose by stating its label.
-- reply b

###

- TARGET OR SYSTEM: Peroxisome proliferator-activated receptor alpha (Homo sapiens, UniProt Q07869)
- MEASUREMENT NOTES: Agonist activity at human PPARalpha expressed in HEK293 cells assessed as receptor transactivation at by luciferase reporter gene assay
pEC50: −log10 of the molar value.
EXPERIMENTAL READOUT: pEC50

Known pEC50 results, listed for orientation:
molecule="CCCC(Sc1nc2ccc(OCC)cc2s1)C(=O)O (racemic)" experimental_readout=pEC50 reported_result=4.83
molecule=COc1ccc2sc(S[C@@H](C)C(=O)O)nc2c1 experimental_readout=pEC50 reported_result=5.72
molecule=C[C@@H](Sc1nc2cc(Cl)ccc2s1)C(=O)O experimental_readout=pEC50 reported_result=4.13
molecule=CC(C)(Sc1nc2ccc(C(F)(F)F)cc2s1)C(=O)O experimental_readout=pEC50 reported_result=4.44

A = CC(Sc1nc2cc(Cl)ccc2s1)C(=O)O (racemic)
B = CC(C)(Sc1nc2cc(Cl)ccc2s1)C(=O)O
-- ask Hey, which is lower on measured pEC50, A or B ? Indicate which entry you chose by stating its label.
-- reply A

###

- TARGET OR SYSTEM: Peroxisome proliferator-activated receptor alpha (Homo sapiens) (UniProt Q07869)
- MEASUREMENT NOTES: Agonist activity at human PPARalpha expressed in HEK293 cells assessed as receptor transactivation at 150 uM by luciferase reporter gene assay relative to control
- Type: functional, cell-based
EXPERIMENTAL READOUT: fold change (FC)

compound=CC(C)(Sc1nc2ccc(Br)cc2s1)C(=O)O reported_result=2.6
compound=COc1ccc2sc(S[C@H](C)C(=O)O)nc2c1 reported_result=2.3
compound="CCOc1ccc2nc(SC(C)C(=O)O)sc2c1 (racemic)" reported_result=2.6
compound=CC(C)(Sc1nc2cc(C#N)ccc2s1)C(=O)O reported_result=1.9

Reference source: ChEMBL document CHEMBL1154187
